molecular target: T1, rat P2X4R extracellular peptide (a.a. 301-313, C-RDLAGKEQRTLTK) (rat, not fully specified (N-terminus)); assay: indirect ELISA of purified scFv on rat P2X4 peptide, concentration not shown
T1 construct: also called P2X4R peptide; rat P2X4 peptide
T1 peptide: RDLAGKEQRTLTK
Ends that are not written are not given here.
measurement_name: binding result

1) humanized P2X4R scFv HC1-LC1 (scFv, HC-(G4S)3-LC with C-terminal His tag, expressed in E. coli) scFv: MAEVKLVESGGGLVQPGGSLRLSCATSGFTFTDYYMSWVRQPPGKALEWLGFIRNKANGYTTEYSASVKGRFTISRDNSQSILYLQMNTLRAEDSATYYCARWEGDLLYAMDYWGQGTSVTVSSGGGGSGGGGSGGGGSDIQMTQTTSSLSASLGDRVTISCSASQGISNYLNWYQQKPDGTVKLLIYYTSSLHSGVPSRFSGSGSGTDYSLTISNLEQEDIATYYCQQYSKLPWTFGGGTKLEIKRAAALEHHHHHH
binds
2) humanized P2X4R scFv HC3-LC1 (scFv, HC-(G4S)3-LC with C-terminal His tag, expressed in E. coli) scFv: MAEVQLVESGGGLVQPGGSLRLSCATSGFTFTDYYMHWVRQAPGKGLEWVGFIRNKANGYTTEYSASVKGRFTISRDNSKNTLYLQMNSLRAEDTAVYYCARWEGDLLYAMDYWGQGTLVTVSSGGGGSGGGGSGGGGSDIQMTQTTSSLSASLGDRVTISCSASQGISNYLNWYQQKPDGTVKLLIYYTSSLHSGVPSRFSGSGSGTDYSLTISNLEQEDIATYYCQQYSKLPWTFGGGTKLEIKRAAALEHHHHHH
binds
